- Test system: human telomeric G-quadruplex DNA (F21T)
- experiment: FRET melting assay, human telomeric quadruplex
- Type: binding
- test_conditions: 1 uM ligand
Items are presented alongside their recorded change in melting temperature F21T 1 uM.

Recorded results for 5 compounds are shown here.
INSERT INTO results (compound, experimental_readout, observed_result) VALUES
  ('CN1CCN(CCCN2C(=O)c3cc(NCC4CCCO4)c4c5c(cc(NCC6CCCO6)c(c35)C2=O)C(=O)N(CCCN2CCN(C)CC2)C4=O)CC1 (racemic)', 'change in melting temperature F21T 1 uM', '<2'),
  ('CN1CCN(CCCNc2cc3c4c(c(NCCCN5CCN(C)CC5)cc5c4c2C(=O)N(CCN2CCOCC2)C5=O)C(=O)N(CCN2CCOCC2)C3=O)CC1', 'change in melting temperature F21T 1 uM', 27),
  ('CN1CCN(CCCN2C(=O)c3cc(NCC4CCOCC4)c4c5c(cc(NCC6CCOCC6)c(c35)C2=O)C(=O)N(CCCN2CCN(C)CC2)C4=O)CC1', 'change in melting temperature F21T 1 uM', '<2'),
  ('CN1CCN(CCNc2cc3c4c(c(NCCN5CCN(C)CC5)cc5c4c2C(=O)N(CCCN2CCOCC2)C5=O)C(=O)N(CCCN2CCOCC2)C3=O)CC1', 'change in melting temperature F21T 1 uM', 28),
  ('CN1CCN(CCCNc2cc3c4c(c(NCCCN5CCN(C)CC5)cc5c4c2C(=O)N(CCCN2CCOCC2)C5=O)C(=O)N(CCCN2CCOCC2)C3=O)CC1', 'change in melting temperature F21T 1 uM', 27);

Could you now look at the following compound, please?
Hello, I am looking for reported change in melting temperature F21T 1 uM with human telomeric G-quadruplex DNA (F21T) for CN1CCN(CCCNc2cc3c4c(c(NCCCN5CCN(C)CC5)cc5c4c2C(=O)N(CC2CCOCC2)C5=O)C(=O)N(CC2CCOCC2)C3=O)CC1 . Could you help?
<2

* * *

- experiment: Pharmacokinetics after bolus IV injection
- Type: in vivo, Balb/c female mice
- test_conditions: female, Balb/c, mouse, in vivo; bolus IV 20 mg/kg, mice
experimental_readout: half-life (h)
Provide only the numeric value, understood in h.

Please look up its half-life: CN1CCN(CCCNc2cc3c4c(c(NCCCN5CCN(C)CC5)cc5c4c2C(=O)N(CCCN2CCOCC2)C5=O)C(=O)N(CCCN2CCOCC2)C3=O)CC1
4

* * *

- Test system: HSP90a promoter quadruplex sequence
- experiment: FRET melting assay, Hsp90A quadruplex
- Type: binding
- test_conditions: 1 uM ligand
experimental_readout: change in melting temperature Hsp90A 1 uM

Recorded results for 2 molecules are shown here.
INSERT INTO assay_data (molecule, tested_on, observed_result) VALUES
  ('CN1CCN(CCCN2C(=O)c3cc(NCC4CCCO4)c4c5c(cc(NCC6CCCO6)c(c35)C2=O)C(=O)N(CCCN2CCN(C)CC2)C4=O)CC1 (racemic)', 'HSP90a promoter quadruplex sequence', 21),
  ('CN1CCN(CCCNc2cc3c4c(c(NCCCN5CCN(C)CC5)cc5c4c2C(=O)N(CC2CCCO2)C5=O)C(=O)N(CC2CCCO2)C3=O)CC1 (stereo not drawn)', 'HSP90a promoter quadruplex sequence', 27);

Could you now look at the following molecule, please?
Please look up its change in melting temperature Hsp90A 1 uM: CN1CCN(CCCN2C(=O)c3cc(NCCCN4CCOCC4)c4c5c(cc(NCCCN6CCOCC6)c(c35)C2=O)C(=O)N(CCCN2CCN(C)CC2)C4=O)CC1
34
